- target.of.assay: Soluble mouse EPOR chimera proteins (erythropoietin receptor) (Mus musculus, UniProt P14753)
- Construct: Soluble mouse EPOR chimera proteins; purchased R&D Systems
- Sequence (P14753 25-249 limits assumed, stated change not applied): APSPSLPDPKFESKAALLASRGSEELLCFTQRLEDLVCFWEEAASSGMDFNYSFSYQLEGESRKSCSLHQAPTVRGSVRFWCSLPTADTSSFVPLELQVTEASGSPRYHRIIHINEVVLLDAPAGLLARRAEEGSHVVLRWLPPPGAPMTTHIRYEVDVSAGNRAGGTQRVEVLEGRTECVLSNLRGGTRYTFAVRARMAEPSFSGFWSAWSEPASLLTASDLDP
- test.summary: Surface plasmon resonance (SPR) binding affinity to erythropoietin receptor
- test.parameters: dissociation rate, Table 8
Peptide text beside a SMILES is read from it.

compound	dissociation rate constant (koff)
CC(C)C[C@H](NC(=O)CNC(=O)[C@H](C)N)C(=O)N[C@@H](CCCNC(=N)N)C(=O)N[C@@H](CO)C(=O)N[C@@H](CCCNC(=N)N)C(=O)N[C@@H](C)C(=O)N[C@@H](Cc1c[nH]cn1)C(=O)N[C@@H](CC(C)C)C(=O)N[C@@H](CCCNC(=N)N)C(=O)N[C@@H](CCCNC(=N)N)C(=O)N[C@@H](C)C(=O)N[C@@H](CC(C)C)C(=O)N[C@@H](C)C(=O)O [ML5-1] (H-AGLRSRAHLRRALA-OH; N-terminus and C-terminus assumed)	3.46 × 10^−2
